Biological target: FEM1B-FNIP1 (Homo sapiens)
Experiment: Fluorescence polarization between FEM1B and FNIP1 (covalent ligand screen)
Assay type: binding
Details: compound at 5 μM; DMSO = 100; FP between FEM1B and FNIP1; read-out: Normalized FP 5 μM
From the text: FIG. 11. Fluorescence polarization screen to identify functional FEM1B-FNIP1-targeting covalent ligands. FEM1B binds a conserved central degron in FNIP1. […] FEM1B variants were immunoprecipitated and bound FNIP1 and FLCN were detected by Western blotting. […] The FNIP1 degron was fused to GFP (GFP^degron) and expressed from the same plasmid as an IRES controlled mCherry. mCherry provides normalization for GFP fluorescence in each cell. […]
# note: exactly 80% is not below, so it is f; use t for remaining activity at 5 µM strictly under it

INSERT INTO results (chem_smiles, target_system, assigned_label) VALUES
  ('O=C(CCl)Nc1cc2c(cc1Br)OCCO2', 'FEM1B-FNIP1 (Homo sapiens)', 'f'),
  ('C=CC(=O)N(CCC#N)c1ccc2c(c1)OCCO2', 'FEM1B-FNIP1 (Homo sapiens)', 'f'),
  ('N#CCCN(C(=O)CCl)c1cccc(Cl)c1', 'FEM1B-FNIP1 (Homo sapiens)', 't'),
  ('COc1ccccc1N(CCC#N)C(=O)CCl', 'FEM1B-FNIP1 (Homo sapiens)', 'f'),
  ('O=C(CCl)Nc1ccc2c(c1)OCCO2', 'FEM1B-FNIP1 (Homo sapiens)', 'f');

With those in mind, consider the next compound.
Query: Determine if C=CCOc1ccccc1CN(C(=O)CCl)c1ccc2c(c1)OCO2 shows remaining activity at 5 µM strictly lower than 80%.
Response: f

* * *

Some compounds, each annotated with its measured activity at 50 µM.
Target: FEM1B-FNIP1 (Homo sapiens, UniProt Q9UK73)
Sequence (Q9UK73 whole entry): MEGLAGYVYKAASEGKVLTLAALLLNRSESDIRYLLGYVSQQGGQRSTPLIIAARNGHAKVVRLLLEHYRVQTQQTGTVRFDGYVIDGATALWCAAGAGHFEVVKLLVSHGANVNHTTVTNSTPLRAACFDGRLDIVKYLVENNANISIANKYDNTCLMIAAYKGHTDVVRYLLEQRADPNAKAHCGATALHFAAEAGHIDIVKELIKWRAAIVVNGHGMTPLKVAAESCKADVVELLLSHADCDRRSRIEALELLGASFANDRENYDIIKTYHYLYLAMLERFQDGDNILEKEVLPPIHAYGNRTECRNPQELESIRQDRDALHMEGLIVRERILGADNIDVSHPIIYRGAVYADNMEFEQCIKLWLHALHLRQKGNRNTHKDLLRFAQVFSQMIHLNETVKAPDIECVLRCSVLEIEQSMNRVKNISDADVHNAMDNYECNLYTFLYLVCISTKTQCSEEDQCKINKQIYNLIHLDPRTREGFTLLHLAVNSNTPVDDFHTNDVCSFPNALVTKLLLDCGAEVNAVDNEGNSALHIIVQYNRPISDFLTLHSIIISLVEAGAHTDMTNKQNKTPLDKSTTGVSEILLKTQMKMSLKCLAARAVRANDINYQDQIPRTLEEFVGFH
Experiment: Fluorescence polarization between FEM1B and FNIP1 (covalent ligand screen)
Type: binding
Conditions: compound at 50 μM; DMSO = 100; FP between FEM1B and FNIP1; read-out: Normalized FP 50 μM
Could you give me the number in %? Just the number is fine.

A selection of reference data follows.
INSERT INTO results (compound, value_kind, measurement_units, result) VALUES
  ('C=CCOc1ccccc1CN(C(=O)CCl)c1ccc2c(c1)OCO2 [EN-NJH-006]', 'activity at 50 µM', '%', 21.5),
  ('N#CCCN(C(=O)CCl)c1ccccc1F [EN-NJH-010]', 'activity at 50 µM', '%', 14.6),
  ('C=CC(=O)N(CCC#N)c1ccc2c(c1)OCCO2 [NJH-01-098]', 'activity at 50 µM', '%', 115),
  ('C=CCOc1ccccc1CN(C(=O)CCl)c1ccc2c(c1)OCCO2 [EN-NJH-001]', 'activity at 50 µM', '%', 19.1);

Could you now look at the following compound, please?
Query: Value lookup for activity at 50 µM; key = Cc1ccc(N(CCC#N)C(=O)CCl)cc1C [EN-NJH-016]
Response: 11.3

* * *

Some compounds, each annotated with its measured activity at 50 µM.
Target: FEM1B-FNIP1 (Homo sapiens, UniProt Q9UK73)
Assay: Fluorescence polarization between FEM1B and FNIP1 (covalent ligand screen)
Format: binding
Details: compound at 50 μM; DMSO = 100; FP between FEM1B and FNIP1; read-out: Normalized FP 50 μM
Could you give me the number in %? Just the number is fine.

A selection of reference data follows.
INSERT INTO measurements (chem_smiles, result) VALUES
  ('O=C(CCl)N(Cc1cccs1)c1ccc2c(c1)OCCO2', 6),
  ('O=C(CCl)N(CC=Cc1ccccc1)c1ccc2c(c1)OCCO2', 26.8),
  ('N#CCCN(C(=O)CCl)c1ccccc1', 19.4);

Query: Value lookup for activity at 50 µM; key = COc1ccccc1N(CCC#N)C(=O)CCl
Response: 24.8

Query: Value lookup for activity at 50 µM; key = O=C(CCl)Nc1cc2c(cc1Br)OCCO2
Response: 11.7
